Recorded values, source patent US20150011462A1.

Biological target: T1, human GLP-1 receptor (human, UniProt P43220 24-463)
T1 construct: whole, on cells
Assay: competitive binding (SPA): displacement of 125I-GLP-1(7-36)NH2 from BHK cell membranes with human GLP-1 receptor; high HSA (2.0% final)
Numbered stars: 1 amine (or outer) side, 2 acyl side, 3 side chain; on linkers, the order of the positions; unused ones are H or OH. Square brackets hold non-standard residues; d marks the D form. Side chains are listed from the residue outwards. Ends that are not written are not given here. * marks the point of attachment. C20 diacid = O=C(O)CCCCCCCCCCCCCCCCCCC(=O)*; γGlu = O=C(O)[C@H](CCC(=O)[*:2])N[*:1]; εLys = N[C@@H](CCCCN[*:1])C(=O)[*:2]; Trx = NC[C@H]1CC[C@H](C(=O)O)CC1; AEEA = NCCOCCOCC(=O)O; Aib = CC(C)(N)C(=O)O
Each entry below lists one item and its recorded IC50 value.
State just the number; it will be interpreted in nM.

Recorded IC50, per entry:
[[record]]
binder = "H[Aib]EGTFTSDVSSYLEEQAAREFIAWLVRGRGK([AEEA-AEEA-γGlu-Trx-C20 diacid])GGSK([AEEA-AEEA-γGlu-Trx-C20 diacid]) (Double-acylated, C-terminally extended GLP-1 analogue made by SPPS)"
readout_value = 185

[[record]]
binder = "H[Aib]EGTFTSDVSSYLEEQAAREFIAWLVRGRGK([εLys-εLys-γGlu-Trx-C20 diacid])GGSK([εLys-εLys-γGlu-Trx-C20 diacid]) (Double-acylated, C-terminally extended GLP-1 analogue made by SPPS)"
readout_value = 197


So, H[Aib]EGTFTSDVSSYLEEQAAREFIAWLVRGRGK([AEEA-AEEA-γGlu-Trx-C20 diacid])SAEK([AEEA-AEEA-γGlu-Trx-C20 diacid]) (Double-acylated, C-terminally extended GLP-1 analogue made by SPPS; also called 13) ? Its IC50 was 160
